- System: Swiss-Webster male mice
- assay_text: Mouse Activity and Screen Test (MAST): inhibition of spontaneous locomotor activity
- Assay type: in vivo
- experimental_context: 10 mg/kg i.p., 1 hour prior to testing
quantity: Inhibition of Mouse Locomotor Activity (%)

INSERT INTO assay_data (compound, quantity, endpoint_value) VALUES
  ('CC1(C)OCC(CNc2ncnc3c2ncn3[C@@H]2O[C@H](CO)[C@@H](O)[C@H]2O)O1 (stereo partly drawn)', 'Inhibition of Mouse Locomotor Activity', 96),
  ('CC1(C)OC[C@@H](CNc2ncnc3c2ncn3[C@@H]2O[C@H](CO)[C@@H](O)[C@H]2O)O1', 'Inhibition of Mouse Locomotor Activity', 48),
  ('OC[C@H](O)CNc1ncnc2c1ncn2[C@@H]1O[C@H](CO)[C@@H](O)[C@H]1O [Example 2, (R)-N^6-[2,3-Dihydroxypropyl]adenosine]', 'Inhibition of Mouse Locomotor Activity', 100),
  ('CC(C)CC(=O)OCC(CNc1ncnc2c1ncn2[C@@H]1O[C@H](COC(=O)CC(C)C)[C@@H](OC(=O)CC(C)C)[C@H]1OC(=O)CC(C)C)OC(=O)CC(C)C (stereo partly drawn)', 'Inhibition of Mouse Locomotor Activity', 91),
  ('Nc1nc(NCC(O)CO)c2ncn([C@@H]3O[C@H](CO)[C@@H](O)[C@H]3O)c2n1 (stereo partly drawn)', 'Inhibition of Mouse Locomotor Activity', 99),
  ('OCC(O)CNc1ncnc2c1ncn2[C@@H]1O[C@H](CO)[C@@H](O)[C@@H]1O (stereo partly drawn) [Example 1, (R,S)-N^6 [2,3-Dihydroxypropyl]adenosine]', 'Inhibition of Mouse Locomotor Activity', 100);
